Where do these numbers come from? They come from patent US20230407243A1.

# System: EKO-35 araC::macAB Pore
# Method description: MIC susceptibility profiling, porinated efflux platform
# Format: cell-based, Escherichia coli
# Details: EKO-35 araC::macAB Pore; technical duplicate
Measurement type: Minimum inhibitory concentration

[[record]]
compound = "O=C(Nc1ccccc1C(=O)Nc1nnc(C(F)(F)F)s1)c1ccccc1Cl [compound 19]"
target_of_assay = "EKO-35 araC::macAB Pore"
data_value = "320 µg/mL"

[[record]]
compound = "N#Cc1ccc(-c2c(NC(=O)C(Cl)Cl)oc(-c3cccs3)c2C#N)cc1 [compound 2]"
target_of_assay = "EKO-35 araC::macAB Pore"
data_value = "320 µg/mL"

[[record]]
compound = "O=c1oc(-c2ccccc2Cl)nn1-c1ccc(C(F)(F)F)cn1 [compound 5]"
target_of_assay = "EKO-35 araC::macAB Pore"
data_value = "10 µg/mL"

